Tested on: MOLT-4
Assay: NCI tumour cell line growth inhibition, 48 h
The source made the active and inactive calls. Cut-off read from the data, not from the text of the source: active = GI50 up to about 1.1 µM and inactive = higher.
Recorded GI50 by entry

Reference set, count: 5
[
  {
    "molecule": "[O-][N+]1=C2CCC/C(=N/O)C2(O)C2CCCCC21N1CCOCC1 (stereo not given)",
    "GI50": "> 100 µM (inactive)"
  },
  {
    "molecule": "O=[N+]([O-])c1ccc2c3c1[C@H]1O[C@H]1c1cccc(c1-3)[C@@H]1O[C@H]21",
    "GI50": "3.01 µM (inactive)"
  },
  {
    "molecule": "C/C(=N/NC(N)=S)C(CN(C)C)C(C1=C(O)c2ccccc2OC1)c1ccccc1 (stereo not given)",
    "GI50": "> 100 µM (inactive)"
  },
  {
    "molecule": "COc1cc(C(=O)O[C@H]2CCC3CCC2N3C)cc(OC)c1OC (stereo not given in full)",
    "GI50": "> 100 µM (inactive)"
  },
  {
    "molecule": "Clc1ncc(Cl)c(Cl)n1",
    "GI50": "1.5 µM (inactive)"
  }
]

Task: Quick one: GI50 for "CCOC(=O)c1nc2cc(F)c(F)cc2nc1NCc1cc(OC)c(OC)c(OC)c1" ?
Result: > 100 µM (inactive)

Task: Consider the molecule shown here: CC1CCC2(NC1)OC1CC3C4CC=C5CC(OC6OC(CO)C(OC7OC(C)C(O)C(O)C7O)C(O)C6OC6OC(C)C(O)C(O)C6O)CCC5(C)C4CCC3(C)C1C2C (stereo not given) What is its recorded GI50?
Result: 8.55 µM (inactive)

Task: For the molecule "N=C(N)Cn1cnc2ccccc21" , what GI50 is on record?
Result: > 100 µM (inactive)

Task: GI50 for O=C(O)c1ccccc1C1CCCc2c1[nH]c1ccccc21 (stereo not given) ?
Result: 27.2 µM (inactive)

Task: For the molecule shown here, "COC(=O)CCC(=O)NC1=C(Nc2ccc(OC)cc2)C(=O)c2ccccc2C1=O" , give the reported GI50.
Result: 15.7 µM (inactive)

----------
Test system: SK-MEL-28
Assay: NCI tumour cell line growth inhibition, 48 h
Calls of active or inactive are those of the source. No stated cut-off is given here; in the data, active = GI50 up to about 1.1 µM and inactive = higher.
Below is a list of entries, each paired with its recorded GI50 value.

Answered examples (2):
[
  {
    "compound": "COc1cc2c(cc1OCCCOc1cc3c(cc1OC)C(=O)N1CCC[C@H]1CN3)N=C[C@@H]1CCCN1C2=O",
    "reportedMeasurement": "0.202 µM (active)"
  },
  {
    "compound": "O=C1C/C(Br)=C\\c2ccccc2-c2ccccc21",
    "reportedMeasurement": "1.05 µM (active)"
  }
]

Task: Item "O=C(O)Cc1c(O)ccc2ccccc12" has what recorded GI50?
Result: > 100 µM (inactive)

----------
System: ACHN
Experiment: NCI tumour cell line growth inhibition, 48 h
Calls of active or inactive are those of the source. No stated cut-off is given here; in the data, active = GI50 up to about 1.1 µM and inactive = higher.
Reply using exactly one outcome from active, inactive

Task: Hi team, can someone confirm the assay call for CC1(C)C2CCC(N)(C2)C1O (stereo unspecified) ?
Result: inactive

Task: Dear all, I need the recorded test outcome for O=C1CC2CC(CC3(CO3)C2)C1F (stereo unspecified) , thank you.
Result: inactive

Task: Just curious, what result did "CN(C)CCNC(=O)c1cccc2c(Nc3ccc(S(N)(=O)=O)cc3)c3ccccc3nc12" get here?
Result: inactive

The measured values listed here are drawn from ChEMBL document CHEMBL1201862.
